Biological target: BRD4-NUT (Homo sapiens, UniProt O60885+Q86Y26)
Construct: endogenous in cells; host or cells: RPMI2650
Assay: BRD4-NUT protein degradation by western blotting in RPMI2650 cells (24 h treatment)
Format: cell-based
Conditions: RPM12650, read-out: BRD4-NUT (DC50)
Procedure: The synthesized compounds were prepared with a 10 mM or 50 mM raw material solution dissolved in DMSO [dimethyl sulfoxide], and were diluted sequentially and treated. [RPMI2650] and [SNU2972] were cultivated under specific conditions. To evaluate the resolution of PROTAC for BRD4 expressed in cells, cells were dispensed in a concentration of 5 X 10^5 cells/well in a 6-well plate, and the sample was treated for 24 hours. […] Protein expression was quantified using Image J program. […]
READOUT KIND: DC50

The reported value for CC[C@H]1c2nnc(C)n2-c2cnc(Nc3ccc(C(=O)NC4CCN(CCC5CCN(c6ccc(NC7CCC(=O)NC7=O)cc6F)CC5)CC4)cc3OC)nc2N1CC1CCCCC1 (some centres unmarked) [ICT-0001562] in terms of DC50 is > 1000 nM

The reported value for CC[C@@H]1c2nnc(C)n2-c2cnc(Nc3ccc(C(=O)N4CC(CN5CCN(c6ccc7c(=O)n(C8CCC(=O)NC8=O)nc(C)c7c6)CC5)C4)cc3OC)nc2N1CC1CCCCC1 (some centres unmarked) [ICT-0001557] in terms of DC50 is > 1000 nM

The reported value for CC[C@@H]1c2nnc(C)n2-c2cnc(Nc3ccc(C(=O)N4CCN(CCNc5cccc6cnn(C7CCC(=O)NC7=O)c(=O)c56)CC4)cc3OC)nc2N1CC1CCCCC1 (some centres unmarked) [ICT-0001601] in terms of DC50 is < 100 nM

The reported value for CC[C@@H]1c2nnc(C)n2-c2cnc(Nc3ccc(C(=O)N4CCN(c5ccc6c(=O)n(C7CCC(=O)NC7=O)nc(C)c6c5)CC4)cc3OC)nc2N1CC1CCCCC1 (some centres unmarked) [ICT-0001576] in terms of DC50 is < 100 nM

The reported value for CC[C@@H]1c2nnc(C)n2-c2cnc(Nc3ccc(C(=O)NC4CCN(CCCC#Cc5ccc6c(=O)n(C7CCC(=O)NC7=O)ncc6c5)CC4)cc3OC)nc2N1CC1CCCCC1 (some centres unmarked) [ICT-0001534] in terms of DC50 is > 1000 nM
